Answer each item with its documented inhibition.
# targetDesc: Beta-1,3-glucan synthase (Candida albicans)
# assayInfo: In vitro inhibition of glucan synthase obtained from Candida albicans at a concentration of 10 ug/mL.
Numbered stars: 1 amine (or outer) side, 2 acyl side, 3 side chain; on linkers, the order of the positions; unused ones are H or OH. Bridge positions count the residues as written; N and C are the ends. Square brackets hold non-standard residues; d marks the D form. Peptide text beside a SMILES is read from it. * marks the point of attachment. Orn(4R-OH,5R-OH) = O=C([C@H](C[C@@H](O)[C@@H](O)N[*:3])N[*:1])[*:2]; X16 = O=C(c1ccc(OCCOCCC23C[C@H]4C[C@@H](C2)C[C@@H](C3)C4)cc1)*; hTyr(3S-OH,4S-OH) = N[C@H](C(=O)O)[C@H](O)[C@@H](O)c1ccc(O)cc1; X20 = CCCCCOc1ccc(C#Cc2ccc(-c3ccc(C(=O)*)cc3)cc2)cc1; Pro(3S-OH,4S-Me) = C[C@H]1CN[C@H](C(=O)O)[C@H]1O; Benzoyl(4-octyloxy) = CCCCCCCCOc1ccc(C(=O)*)cc1; X8 = O=C(c1ccc(-c2ccc(C#Cc3ccccc3)cc2)cc1)*; X13 = O=C(CCCCCCCCCCOc1ccc(-c2ccccc2)cc1)*; X24 = CCCCC(Oc1ccc(-c2ccccc2)cc1)C(=O)*; X26 = CCCCOc1ccc(Cc2ccc(C(=O)*)cc2)cc1; X12 = CCCCCCCCCCOCCOc1ccc(C(=O)*)cc1; X30 = CCCCCCOc1cc2ccccc2cc1C(=O)*; Hyp = O=C(O)[C@@H]1C[C@@H](O)CN1
Answers are plain numbers, in %.

Below are worked cases with known answers.
INSERT INTO assay_data (compound, measuredresult) VALUES
  ('CCCCCOc1ccc(C#Cc2ccc(-c3ccc(C(=O)N[C@H]4C[C@@H](O)[C@@H](O)NC(=O)[C@@H]5[C@@H](O)[C@@H](C)CN5C(=O)[C@H]([C@@H](C)O)NC(=O)[C@H]([C@H](O)[C@@H](O)c5ccc(O)cc5)NC(=O)[C@@H]5C[C@@H](O)CN5C(=O)[C@H]([C@@H](C)O)NC4=O)cc3)cc2)cc1 (X20-[Orn(4R-OH,5R-OH)]T[Hyp][hTyr(3S-OH,4S-OH)]T[Pro(3S-OH,4S-Me)]; lactam 1-C)', 82.3),
  ('C[C@@H](O)[C@@H]1NC(=O)[C@H]([C@H](O)[C@@H](O)c2ccc(O)cc2)NC(=O)[C@@H]2C[C@@H](O)CN2C(=O)[C@H]([C@@H](C)O)NC(=O)[C@@H](NC(=O)c2ccc(-c3ccc(C#Cc4ccccc4)cc3)cc2)C[C@@H](O)[C@@H](O)NC(=O)[C@@H]2[C@@H](O)[C@@H](C)CN2C1=O (X8-[Orn(4R-OH,5R-OH)]T[Hyp][hTyr(3S-OH,4S-OH)]T[Pro(3S-OH,4S-Me)]; lactam 1-C)', 75.8),
  ('CCCCOc1ccc(Cc2ccc(C(=O)N[C@H]3C[C@@H](O)[C@@H](O)NC(=O)[C@@H]4[C@@H](O)[C@@H](C)CN4C(=O)[C@H]([C@@H](C)O)NC(=O)[C@H]([C@H](O)[C@@H](O)c4ccc(O)cc4)NC(=O)[C@@H]4C[C@@H](O)CN4C(=O)[C@H]([C@@H](C)O)NC3=O)cc2)cc1 (X26-[Orn(4R-OH,5R-OH)]T[Hyp][hTyr(3S-OH,4S-OH)]T[Pro(3S-OH,4S-Me)]; lactam 1-C)', 43.4),
  ('CCCCCCOc1cc2ccccc2cc1C(=O)N[C@H]1C[C@@H](O)[C@@H](O)NC(=O)[C@@H]2[C@@H](O)[C@@H](C)CN2C(=O)[C@H]([C@@H](C)O)NC(=O)[C@H]([C@H](O)[C@@H](O)c2ccc(O)cc2)NC(=O)[C@@H]2C[C@@H](O)CN2C(=O)[C@H]([C@@H](C)O)NC1=O (X30-[Orn(4R-OH,5R-OH)]T[Hyp][hTyr(3S-OH,4S-OH)]T[Pro(3S-OH,4S-Me)]; lactam 1-C)', 19.4),
  ('C[C@@H](O)[C@@H]1NC(=O)[C@H]([C@H](O)[C@@H](O)c2ccc(O)cc2)NC(=O)[C@@H]2C[C@@H](O)CN2C(=O)[C@H]([C@@H](C)O)NC(=O)[C@@H](NC(=O)c2ccc(OCCOCCC34C[C@H]5C[C@@H](C3)C[C@@H](C4)C5)cc2)C[C@@H](O)[C@@H](O)NC(=O)[C@@H]2[C@@H](O)[C@@H](C)CN2C1=O (X16-[Orn(4R-OH,5R-OH)]T[Hyp][hTyr(3S-OH,4S-OH)]T[Pro(3S-OH,4S-Me)]; lactam 1-C)', 72.3);

Please give inhibition for each item listed below.
1. CCCCCCCCCCOCCOc1ccc(C(=O)N[C@H]2C[C@@H](O)[C@@H](O)NC(=O)[C@@H]3[C@@H](O)[C@@H](C)CN3C(=O)[C@H]([C@@H](C)O)NC(=O)[C@H]([C@H](O)[C@@H](O)c3ccc(O)cc3)NC(=O)[C@@H]3C[C@@H](O)CN3C(=O)[C@H]([C@@H](C)O)NC2=O)cc1 (X12-[Orn(4R-OH,5R-OH)]T[Hyp][hTyr(3S-OH,4S-OH)]T[Pro(3S-OH,4S-Me)]; lactam 1-C)
2. C[C@@H](O)[C@@H]1NC(=O)[C@H]([C@H](O)[C@@H](O)c2ccc(O)cc2)NC(=O)[C@@H]2C[C@@H](O)CN2C(=O)[C@H]([C@@H](C)O)NC(=O)[C@@H](NC(=O)CCCCCCCCCCOc2ccc(-c3ccccc3)cc2)C[C@@H](O)[C@@H](O)NC(=O)[C@@H]2[C@@H](O)[C@@H](C)CN2C1=O (X13-[Orn(4R-OH,5R-OH)]T[Hyp][hTyr(3S-OH,4S-OH)]T[Pro(3S-OH,4S-Me)]; lactam 1-C)
3. CCCCCCCCOc1ccc(C(=O)N[C@H]2C[C@@H](O)[C@@H](O)NC(=O)[C@@H]3[C@@H](O)[C@@H](C)CN3C(=O)[C@H]([C@@H](C)O)NC(=O)[C@H]([C@H](O)[C@@H](O)c3ccc(O)cc3)NC(=O)[C@@H]3C[C@@H](O)CN3C(=O)[C@H]([C@@H](C)O)NC2=O)cc1 [CILOFUNGIN] ({Benzoyl(4-octyloxy)}-[Orn(4R-OH,5R-OH)]T[Hyp][hTyr(3S-OH,4S-OH)]T[Pro(3S-OH,4S-Me)]; lactam 1-C)
4. CCCCC(Oc1ccc(-c2ccccc2)cc1)C(=O)N[C@H]1C[C@@H](O)[C@@H](O)NC(=O)[C@@H]2[C@@H](O)[C@@H](C)CN2C(=O)[C@H]([C@@H](C)O)NC(=O)[C@H]([C@H](O)[C@@H](O)c2ccc(O)cc2)NC(=O)[C@@H]2C[C@@H](O)CN2C(=O)[C@H]([C@@H](C)O)NC1=O (stereo partly drawn) (X24-[Orn(4R-OH,5R-OH)]T[Hyp][hTyr(3S-OH,4S-OH)]T[Pro(3S-OH,4S-Me)]; lactam 1-C)

output:
1: 71.4; 2: 80.2; 3: 76; 4: 55.1
